# TARGET UNDER TEST: ACD2 (ACCELERATED CELL DEATH 2; ACD2^40-320; Red Chlorophyll Catabolite Reductase) (Arabidopsis thaliana, UniProt Q8LDU4, E154A/D291H)
# Sequence (Q8LDU4 40-319 E154A/D291H): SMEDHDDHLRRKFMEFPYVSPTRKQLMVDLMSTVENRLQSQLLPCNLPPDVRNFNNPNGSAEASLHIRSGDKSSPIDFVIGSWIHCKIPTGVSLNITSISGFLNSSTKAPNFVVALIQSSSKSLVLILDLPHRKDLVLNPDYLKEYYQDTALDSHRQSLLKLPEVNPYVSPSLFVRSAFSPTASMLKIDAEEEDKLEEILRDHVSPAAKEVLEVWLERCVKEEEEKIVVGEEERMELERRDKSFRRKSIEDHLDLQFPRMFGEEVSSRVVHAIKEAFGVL
# TEST: intrinsic tryptophan fluorescence quenching
# PROTOCOL CONDITIONS: 0.1 μM protein, 50 mM Na2HPO4 pH 8.0, 25 mM NaCl, 22°C, excitation 296 nm
pKd: −log10 of the molar value.
REPORTED METRIC: pKd

C=CC1=C(C)/C(=C/C2=NC(=C3\c4[nH]c(Cc5[nH]c(C=O)c(C)c5CC)c(C)c4C(=O)[C@@H]3C(=O)OC)/[C@@H](CCC(=O)O)[C@@H]2C)NC1=O :: 6.47
